System: M14
Test: NCI tumour cell line growth inhibition, 48 h
Calls of active or inactive are those of the source. No stated cut-off is given here; in the data, active = GI50 up to about 1.1 µM and inactive = higher.
Readings of GI50 for the listed compounds
ASSAY_METRIC: GI50

[[record]]
compound = "O=S(=O)(c1ccccc1)C1CN2OC1(S(=O)(=O)c1ccccc1)CC2c1ccc(Br)cc1 (stereo not given)"
assay_target = "M14"
observed = "> 100 µM (inactive)"

[[record]]
compound = "O=C1c2ccccc2-c2nc3ccc(O)cc3n21"
assay_target = "M14"
observed = "> 100 µM (inactive)"

[[record]]
compound = "COc1ccc(N/N=C/C2=CC(C)(C)C(C#N)(C#N)C(O)=C2C#N)cc1"
assay_target = "M14"
observed = "54.2 µM (inactive)"

[[record]]
compound = "OC/C=C/[C@H](OCc1ccccc1)[C@H](/C=C/CO)OCc1ccccc1"
assay_target = "M14"
observed = "76.6 µM (inactive)"

[[record]]
compound = "O=C(/C=C(\\Nc1ccccc1O)c1ccccc1)C(=O)NC12CC3CC(CC(C3)C1)C2"
assay_target = "M14"
observed = "> 10 µM (inactive)"

[[record]]
compound = "COc1ccc(S(=O)(=O)N/N=C/CN2C(=O)c3ccccc3C2=O)cc1OC"
assay_target = "M14"
observed = "> 100 µM (inactive)"

[[record]]
compound = "Cc1cccc(/C=N/C23CC4CC(CC(C4)C2)C3)c1"
assay_target = "M14"
observed = "> 100 µM (inactive)"

[[record]]
compound = "COc1ccc(/C=C2\\CN(C)Cc3c2nc(N)nc3-c2ccc(OC)cc2)cc1"
assay_target = "M14"
observed = "69.3 µM (inactive)"

[[record]]
compound = "C#CCNC(CS)C(=O)O (stereo not given)"
assay_target = "M14"
observed = "> 100 µM (inactive)"

[[record]]
compound = "COC(=O)C1=C(O)C(C(=O)OC)[C@@]2(O)[C@@H](C(=O)OC)C(c3ccc(OC(=O)/C(=C/c4ccccc4)c4ccccc4)cc3)C[C@@H]1[C@@H]2C(=O)OC (stereo not given in full)"
assay_target = "M14"
observed = "7.03 µM (inactive)"


---

Tested on: MDA-N
Assay: NCI tumour cell line growth inhibition, 48 h
Activity calls are given as the source filed them. Rule as the data show it: active = GI50 up to about 1.1 µM and inactive = higher.
Classes used: YES for active, NO for inactive

[[record]]
compound = "NCCN/C(=N\\c1ccccc1)Nc1ccccc1"
assay_target = "MDA-N"
label_class = "NO"

[[record]]
compound = "CNC(=O)/C=C/C1=CN2C(=O)c3ccc(C)c(O)c3NC(OC)C2C1 (stereo unspecified)"
assay_target = "MDA-N"
label_class = "YES"

[[record]]
compound = "CC(C)OP(=O)(CCCCCCCCC/C=C/c1ccc2c(c1)OCCOCCOCCOCCO2)OC(C)C"
assay_target = "MDA-N"
label_class = "NO"

[[record]]
compound = "Cc1ccc(C2=Nn3c(nc4sc(C)c(C)c4c3=O)SC2)cc1"
assay_target = "MDA-N"
label_class = "NO"

[[record]]
compound = "COc1ccc(/C=C2\\CCCC(CN(C)C)C2=O)cc1 (stereo unspecified)"
assay_target = "MDA-N"
label_class = "NO"

[[record]]
compound = "COc1ccc(Br)c2c1CC(C(=O)O)CC2 (stereo unspecified)"
assay_target = "MDA-N"
label_class = "NO"

[[record]]
compound = "O=C(/C=C/c1ccccc1)c1ccccc1 [CHALCONE]"
assay_target = "MDA-N"
label_class = "NO"

[[record]]
compound = "CC1(C)CC(=O)C(=CNC(=O)c2ccncc2)C(=O)C1"
assay_target = "MDA-N"
label_class = "NO"

[[record]]
compound = "S=C(N1CCN(c2ccccc2)CC1)N1CCN(c2ccccc2)CC1"
assay_target = "MDA-N"
label_class = "NO"

[[record]]
compound = "O=P(O)(Cc1ccccc1)c1ccccc1-c1ccccc1"
assay_target = "MDA-N"
label_class = "NO"

[[record]]
compound = "Cn1/c(=N\\N=C2\\C=C3CCCCC3(C)CC2)sc2ccccc21 (stereo unspecified)"
assay_target = "MDA-N"
label_class = "NO"

